system: NCI-H522 lung; experiment: NCI tumour cell line growth inhibition, 48 h
Kindly supply the reported TGI values for the records listed here.

What does the data say about its TGI? Entry: C[C@H]1CC[C@@H]2[C@@H](C)[C@H]3[C@H](C[C@H]4[C@@H]5CC=C6C[C@@H](O)CC[C@]6(C)[C@H]5C[C@H](O)[C@]34C)N2C1 > 100 µM

What does the data say about its TGI? Entry: CSc1ccc2c(cc1=O)C(NC(=O)c1ccc(OC(C)=O)cc1)CCc1cc(O)c(O)c(O)c1-2 (centres undefined) 28.8 µM

What does the data say about its TGI? Entry: O=C(O)C#CCO > 100 µM

What does the data say about its TGI? Entry: Cc1ccc(S(=O)(=O)Oc2ccc(OS(=O)(=O)c3ccc(C)cc3)c3c2C(=O)c2ccccc2C3=O)cc1 > 100 µM

What does the data say about its TGI? Entry: CC(=O)OCC12C(OC(C)=O)C[C@@H](C)C3(CC(c4ccoc4)OC3=O)C1CCC(O)C21CO1 (some centres undefined) > 100 µM

What does the data say about its TGI? Entry: CCCN(CCC)CCCNC(=O)c1cc2c(-c3ccc(OC)c(OC)c3)nn(C)c2s1 41.3 µM

What does the data say about its TGI? Entry: C=C1C(=O)O[C@@H]2C[C@@H]1CC[C@@]1(C)O[C@@H]1CC[C@@]1(C)O[C@@H]1CC[C@@]2(C)O 45.4 µM

What does the data say about its TGI? Entry: O=C1c2ccccc2-c2c1c1ccccc1c(=O)n2CCCN1CCN(CCCn2c3c(c4ccccc4c2=O)C(=O)c2ccccc2-3)CC1 > 100 µM

What does the data say about its TGI? Entry: Nc1ncnc2c1ncn2C1CCC(CO)O1 (centres undefined) > 100 µM

* * *

Kindly supply the reported TGI values for the records listed here.
test system: SK-MEL-28 melanoma; assay: NCI tumour cell line growth inhibition, 48 h

Give the reported TGI for CCOC(=O)c1c(C)n2c(=O)cc(C)c3c(OC(C)=O)c(OC(C)=O)cc1c32 (system: SK-MEL-28 melanoma). 22.5 µM

Give the reported TGI for CCC[CH2][Sn]([CH2]CCC)([O]C(=O)c1nccnc1N)[O]C(=O)c1nccnc1N (system: SK-MEL-28 melanoma). 2.04 µM

Give the reported TGI for N#CC(C#N)=C(N)/C(C#N)=C/c1cc(O)c(O)c(Br)c1 (system: SK-MEL-28 melanoma). > 100 µM

Give the reported TGI for CN(C)CCCNc1nnc(NCCCN(C)C)c2c(=O)c3sccc3[nH]c12 (system: SK-MEL-28 melanoma). > 84.9 µM

Give the reported TGI for C#CCNC(=O)CC[C@]1(C)[C@H]2CC[C@@H]3[C@@H]([C@@](C)(O)CCC=C(C)C)CC[C@@]3(C)[C@]2(C)CC[C@H]1C(=C)C (system: SK-MEL-28 melanoma). 80 µM

Give the reported TGI for [C-]#[O+].[Cl][Sn]([Cl])[Cl].[Cl][Sn]([Cl])[Cl].[Pt].c1ccncc1 (system: SK-MEL-28 melanoma). > 100 µM

Give the reported TGI for CSc1nc2c(N)ncnc2n1C (system: SK-MEL-28 melanoma). > 100 µM

Give the reported TGI for CN(C)CCNC(=O)c1cccc2nc3cccc(F)c3nc12 (system: SK-MEL-28 melanoma). 11.5 µM

Give the reported TGI for N#Cc1c(-c2ccccc2)cc(-c2ccccc2)n(CCCCC(=O)NO)c1=O (system: SK-MEL-28 melanoma). 10.4 µM

Give the reported TGI for O=S1(=O)CS(=O)(=O)OCCCO1 (system: SK-MEL-28 melanoma). > 100 µM

Give the reported TGI for c1ccc2c(c1)nc1n2CSC1 (system: SK-MEL-28 melanoma). > 100 µM

Give the reported TGI for CSc1ccc2c(cc1=O)C(NC(=O)c1ccc(OC(C)=O)cc1)CCc1cc(O)c(O)c(O)c1-2 (configuration not stated) (system: SK-MEL-28 melanoma). > 100 µM

Give the reported TGI for c1ccc2c3c([nH]c2c1)C1c2[nH]c4ccccc4c2CCN1CC3 (system: SK-MEL-28 melanoma). 31.7 µM

Give the reported TGI for CN1c2ccccc2S(=O)(=O)n2c(COc3ccc(Cl)cc3)nnc21 (system: SK-MEL-28 melanoma). > 100 µM

Give the reported TGI for Nc1ccccc1NC(=O)c1ccc(CN2CCC/C(=C\c3cccc(Cl)c3)C2=O)cc1 (system: SK-MEL-28 melanoma). 58.9 µM

Give the reported TGI for O=C(c1cccs1)c1c(C(F)(F)F)n([O-])c2ccc(F)cc2[n+]1=O (system: SK-MEL-28 melanoma). 2.86 µM

Give the reported TGI for CC1(C)CC2C=C(C=O)C3(C=O)CC3(C)C2C1 (configuration not stated) (system: SK-MEL-28 melanoma). 4.19 µM

Give the reported TGI for COC(=O)C1C2C=CC(C2)N1S(=O)(=O)c1ccccc1 (configuration not stated) (system: SK-MEL-28 melanoma). > 100 µM

Give the reported TGI for Cc1cc(-c2nc(-c3ccc(OC(F)(F)F)cc3)no2)nn1Cc1ccnc(N2CCN(C3CC3)CC2)c1 (system: SK-MEL-28 melanoma). > 40.2 µM

Give the reported TGI for CC[CH2][Sn]([Cl])([Cl])[CH2]CC (system: SK-MEL-28 melanoma). 23.7 µM

Give the reported TGI for COc1cc2c3c(n(CCN(C)C)c(=O)c2cc1OC)-c1cc2c(cc1C3=O)OCO2 (system: SK-MEL-28 melanoma). > 100 µM

Give the reported TGI for O=C(O)c1cc(=O)[nH]c(=S)[nH]1 (system: SK-MEL-28 melanoma). > 100 µM

Give the reported TGI for CCOC(=O)c1cccc([N+](=O)[O-])c1N (system: SK-MEL-28 melanoma). > 100 µM

Give the reported TGI for O=C(N/N=C1/C(=O)c2c3ccccc3cc3cccc1c23)c1cccc(Cl)c1 (system: SK-MEL-28 melanoma). > 100 µM

Give the reported TGI for O=C1c2ccccc2-c2c1c1ccccc1c(=O)n2CCCN1CCN(CCCn2c3c(c4ccccc4c2=O)C(=O)c2ccccc2-3)CC1 (system: SK-MEL-28 melanoma). > 100 µM

Give the reported TGI for CC(=O)Nc1cc2c(cc1O)CC[C@@H]1[C@@H]2CC[C@]2(C)[C@@H](O)CC[C@@H]12 (system: SK-MEL-28 melanoma). > 100 µM

Give the reported TGI for CC(/C=C/c1ccc([N+](=O)[O-])o1)=N/N1CC(CN2CCOCC2)OC1=O (configuration not stated) (system: SK-MEL-28 melanoma). 38.2 µM

Give the reported TGI for Cc1cccc2c(N)c3cccc(C(=O)NCCN(C)C)c3nc12 (system: SK-MEL-28 melanoma). 0.482 µM

Give the reported TGI for COc1ccc([N-]/C(=N\n2c(=O)c(C)nn(C)c2=S)N(c2ccc(OC)cc2)c2nn3c(=O)c(C)n[n+](C)c3s2)cc1 (system: SK-MEL-28 melanoma). > 100 µM

Give the reported TGI for O=C(Nc1ccccc1Br)c1cccc([N+](=O)[O-])c1O (system: SK-MEL-28 melanoma). 59.9 µM

Give the reported TGI for O=C(Nc1ccc(Cl)cc1)/C(Cc1cccc[n+]1[O-])=N\Nc1ccc([N+](=O)[O-])cc1[N+](=O)[O-] (system: SK-MEL-28 melanoma). > 100 µM

Give the reported TGI for CCOC(=O)C(=O)N=Nc1nc2c(O)c3ccccc3c(O)c2s1 (system: SK-MEL-28 melanoma). 6.38 µM

Give the reported TGI for CC(=O)OC1CCC2(C)C(=CCC3C2CCC2(C)C(C(C)C(=O)O)CCC32)C1 (configuration not stated) (system: SK-MEL-28 melanoma). > 100 µM

Give the reported TGI for COC(=O)c1ccc([N+](=O)[O-])c(O)c1 (system: SK-MEL-28 melanoma). > 100 µM

Give the reported TGI for O=C1c2ccccc2C(=O)N1CCCCCCNOCCCN1C(=O)c2ccccc2C1=O (system: SK-MEL-28 melanoma). > 100 µM

Give the reported TGI for Clc1ccc(-c2nn3ncccc3c2-c2ccnc(Nc3ccccc3)n2)cc1 (system: SK-MEL-28 melanoma). > 25 µM

Give the reported TGI for COc1ccc(C2=NN(c3ccccc3)C(c3cc4cc(Br)ccc4nc3Cl)C2)cc1 (configuration not stated) (system: SK-MEL-28 melanoma). > 25 µM

Give the reported TGI for C#CCOC(=O)C(N)CSSCC(N)C(=O)O (configuration not stated) (system: SK-MEL-28 melanoma). > 100 µM

Give the reported TGI for C/C(=N/NC(=O)C(N)=O)C(CC(C(=O)Nc1ccccc1C)/C(C)=N\NC(=O)C(N)=O)C(=O)Nc1ccccc1C (configuration not stated) (system: SK-MEL-28 melanoma). > 100 µM

Give the reported TGI for C=C1Oc2nc3ccccc3c(=O)n2C1(C)C (system: SK-MEL-28 melanoma). > 100 µM

Give the reported TGI for C/C(=C\CCc1ccoc1)CC/C=C(\C)CCCN1CCC(CO)CC1 (system: SK-MEL-28 melanoma). 4.03 µM

Give the reported TGI for O=C(O)C1CCCCN1C(=O)c1ccccc1 (configuration not stated) (system: SK-MEL-28 melanoma). > 100 µM
